# System: HCV NS3/4A protease genotype 1b (Hepatitis C virus genotype 1b, UniProt P26663)
# Protocol Summary: HCV NS3/4A protease time-resolved fluorescence (TRF) assay, Ki against genotype 1b
# Format: biochemical
# Condition Label: IC50 [gt-1b], NS3/4A protease TRF assay, genotype 1b enzyme 0.2 nM
Measured Metric: pIC50
Please note pIC50 is a logarithmic value: minus log10 of concentration in mol/L. Answer with that number alone.

Below: 3 compounds and their reported pIC50.
1) COc1ccc2nc(C)c3c(c2c1)CC[C@]1(C[C@H]2C(=O)N[C@]4(C(=O)NS(=O)(=O)C5(C)CC5)C[C@H]4/C=C\CCCCC[C@H](Nc4ncccc4C)C(=O)N2C1)O3 [Example 429] ... 9.71
2) CCc1nc2ccc(OCCN3CCOCC3)cc2c2c1O[C@]1(CC2)C[C@H]2C(=O)N[C@]3(C(=O)NS(=O)(=O)C4(C)CC4)C[C@H]3/C=C\CCCCC[C@H](NC(=O)OC(C)(C)C)C(=O)N2C1 [Example 470] ... 10.96
3) Cc1nc2ccccc2c2c1O[C@]1(CC2)C[C@H]2C(=O)N[C@]3(C(=O)NS(=O)(=O)C4(C)CC4)C[C@H]3/C=C\CCCCC[C@H](Nc3nc4ccccc4o3)C(=O)N2C1 [Example 379] ... 9.98

Exam item: Name the recorded pIC50 of the item COc1ccc2nc(C(F)F)c3c(c2n1)CC[C@]1(C[C@H]2C(=O)N[C@]4(C(=O)NS(=O)(=O)C5(C)CC5)C[C@H]4/C=C\CCCCC[C@H](NC(=O)OCC(C)(C)C)C(=O)N2C1)O3 [Example 526] in your answer.
Marked response: 11.30

Exam item: Supply measured pIC50 of CCc1nc2ccc(OC)cc2c2c1O[C@]1(CC2)C[C@H]2C(=O)N[C@]3(C(=O)NS(=O)(=O)C4(C)CC4)C[C@H]3/C=C\CCCCC[C@H](NC(=O)c3c(C)n[nH]c3C)C(=O)N2C1 [Example 485] in your reply.
Marked response: 11.30

Exam item: Quickly give me recorded pIC50 for COc1cc(Cl)c2nc(C(F)(F)F)c3c(c2c1)CC[C@]1(C[C@H]2C(=O)N[C@]4(C(=O)NS(=O)(=O)C5(C)CC5)C[C@H]4/C=C\CCCCC[C@H](NC(=O)OC(C)(C)C)C(=O)N2C1)O3 [Example 398]
Marked response: 10.60

Exam item: For the compound CCc1nc2ccc(OC)cc2c2c1O[C@]1(C[C@H]2F)C[C@H]2C(=O)N[C@]3(C(=O)NS(=O)(=O)C4(C)CC4)C[C@H]3/C=C\CCCCC[C@H](NC(=O)OC(C)(C)C)C(=O)N2C1 [Example 439] , report pIC50.
Marked response: 11.05

Exam item: Read off the recorded pIC50 for Cc1ccc2nc(C(F)(F)F)c3c(c2c1)CC[C@]1(C[C@H]2C(=O)N[C@]4(C(=O)NS(=O)(=O)C5(C)CC5)C[C@H]4/C=C\CCCCC[C@H](NC(=O)OC(C)(C)C(F)(F)F)C(=O)N2C1)O3 [Example 393]
Marked response: 10.59

Exam item: Give me measured pIC50, please, for this compound: Cc1nc2ccc(OCCN3CCOCC3)cc2c2c1O[C@]1(CC2)C[C@H]2C(=O)N[C@]3(C(=O)NS(=O)(=O)C4(C)CC4)C[C@H]3/C=C\CCCCC[C@H](NC(=O)OC(C)(C)C)C(=O)N2C1 [Example 418]
Marked response: 11.10

----------
// pIC50 lookup, one value per entry
# System: HCV NS3/4A protease genotype 1b (Hepatitis C virus genotype 1b)
# Protocol Summary: HCV NS3/4A protease time-resolved fluorescence (TRF) assay, Ki against genotype 1b
# Format: biochemical
# Condition Label: IC50 [gt-1b], NS3/4A protease TRF assay, genotype 1b enzyme 0.2 nM
Note on units: pIC50 is unitless, being -log10 of a concentration expressed in mol/L.

Look over these answered cases.
1. CCc1nc2ccc(OCCCOC)cc2c2c1O[C@]1(CC2)C[C@H]2C(=O)N[C@]3(C(=O)NS(=O)(=O)C4(C)CC4)C[C@H]3/C=C\CCCCC[C@H](NC(=O)OC(C)(C)C)C(=O)N2C1 [Example 479] ... 11.30
2. CCC1(OC(=O)N[C@H]2CCCCC/C=C\[C@@H]3C[C@@]3(C(=O)NS(=O)(=O)C3(C)CC3)NC(=O)[C@@H]3C[C@]4(CCc5c(c(C(F)(F)F)nc6ccc(OC)cc56)O4)CN3C2=O)CC1 [Example 452] ... 10.52
3. Cc1nc2ccccc2c2c1O[C@]1(CC2)C[C@H]2C(=O)N[C@]3(C(=O)NS(=O)(=O)C4(C)CC4)C[C@H]3/C=C\CCCCC[C@H](Nc3nc(C4CC4)no3)C(=O)N2C1 [Example 394] ... 10.24
4. CCc1nc2ccc(OC)cc2c2c1O[C@]1(CC2)C[C@H]2C(=O)N[C@]3(C(=O)NS(=O)(=O)C4(C)CC4)C[C@H]3/C=C\CCCCC[C@H](NC(=O)O[C@H](C)C(C)C)C(=O)N2C1 [Example 433] ... 10.92
5. COCCCOc1ccc2nc(C)c3c(c2c1)CC[C@]1(C[C@H]2C(=O)N[C@]4(C(=O)NS(=O)(=O)C5(C)CC5)C[C@H]4/C=C\CCCCC[C@H](NC(=O)OCC(C)(C)C)C(=O)N2C1)O3 [Example 453] ... 10.77
6. CCc1nc2ccc(OC)cc2c2c1O[C@]1(CC2)C[C@H]2C(=O)N[C@]3(C(=O)NS(=O)(=O)C4(C)CC4)C[C@H]3/C=C\CCCCC[C@H](NC(=O)O[C@@H](C)C3CC3)C(=O)N2C1 [Example 486] ... 11.00

Exam item: Lab note: record pIC50 of Cc1ccc2nc(C(F)(F)F)c3c(c2c1)CC[C@]1(C[C@H]2C(=O)N[C@]4(C(=O)NS(=O)(=O)C5(C)CC5)C[C@H]4/C=C\CCCCC[C@H](NC(=O)OCCCN4CCCCC4)C(=O)N2C1)O3 [Example 423] tested on HCV NS3/4A protease genotype 1b (Hepatitis C virus genotype 1b).
Marked response: 10.32

Exam item: Under HCV NS3/4A protease genotype 1b (Hepatitis C virus genotype 1b), report pIC50 for Cc1nc2cc(F)ccc2c2c1OC1(CC2F)C[C@H]2C(=O)N[C@]3(C(=O)NS(=O)(=O)C4(C)CC4)C[C@H]3/C=C\CCCCC[C@H](NC(=O)OC(C)(C)C)C(=O)N2C1 (stereo partly drawn) [Example 464]
Marked response: 8.99

----------
# System: HCV NS3/4A protease genotype 1b (Hepatitis C virus genotype 1b, UniProt P26663)
# Protocol Summary: HCV NS3/4A protease time-resolved fluorescence (TRF) assay, Ki against genotype 1b
# Format: biochemical
# Condition Label: IC50 [gt-1b] (nM), NS3/4A genotype 1b, enzyme 0.2 nM
Definition: the class of an entry is the range in 1 = under 0.01 nM, 2 = from 0.01 nM up to 0.03 nM, 3 = 0.03 nM and over that contains its IC50.

1) Cc1nc2c(C(F)(F)F)cccc2c2c1O[C@]1(CC2)C[C@H]2C(=O)N[C@]3(C(=O)NS(=O)(=O)C4(C)CC4)C[C@H]3/C=C\CCCCC[C@H](NC(=O)OC(C)(C)C)C(=O)N2C1 [Example 44] ... 3
2) CC1(C)CCCC1OC(=O)N[C@H]1CCCCC/C=C\[C@@H]2C[C@@]2(C(=O)NS(=O)(=O)C2(C)CC2)NC(=O)[C@@H]2C[C@]3(CCc4c(c(C5CC5)nc5c(F)cccc45)O3)CN2C1=O (stereo partly shown) [Example 187] ... 2

Exam item: Note: place this compound into its band. Item: Cc1nc2ccccc2c2c1O[C@]1(CC2)C[C@H]2C(=O)N[C@]3(C(=O)NS(=O)(=O)C4(C)CC4)C[C@H]3/C=C\CCCCC[C@H](NS(C)(=O)=O)C(=O)N2C1 [Example 229]
Marked response: 3

Exam item: Lab note: sort Cc1ccnc(N[C@H]2CCCCC/C=C\[C@@H]3C[C@@]3(C(=O)NS(=O)(=O)C3(C)CC3)NC(=O)[C@@H]3C[C@]4(CCc5c(c(C)nc6ccccc56)O4)CN3C2=O)c1 [Example 350] into the matching IC50 band.
Marked response: 3

Exam item: Class? Entry: Cc1nc2ccc(C#N)cc2c2c1O[C@]1(CC2)C[C@H]2C(=O)N[C@]3(C(=O)NS(=O)(=O)C4(C)CC4)C[C@H]3/C=C\CCCCC[C@H](NC(=O)OC(C)(C)C)C(=O)N2C1 [Example 59]
Marked response: 2

Exam item: Into which category would you place CC(C)(C)OC(=O)N[C@H]1CCCCC/C=C\[C@@H]2C[C@@]2(C(=O)NS(=O)(=O)C2(C)CC2)NC(=O)[C@@H]2C[C@]3(CCc4c(c(C(F)(F)F)nc5ccc(OCCO)cc45)O3)CN2C1=O [Example 60] ?
Marked response: 1

Exam item: Given CC1(S(=O)(=O)NC(=O)[C@@]23C[C@H]2/C=C\CCCCC[C@H](NC(=O)OC2CCCC2)C(=O)N2C[C@@]4(CCc5c(c(C6CC6)nc6ccccc56)O4)C[C@H]2C(=O)N3)CC1 [Example 104] , name the class its IC50 places it in.
Marked response: 2

Exam item: Lab log: Cc1nc2ccccc2c2c1O[C@]1(CC2O)C[C@H]2C(=O)N[C@]3(C(=O)NS(=O)(=O)C4(C)CC4)C[C@H]3/C=C\CCCCC[C@H](NC(=O)OC(C)(C)C)C(=O)N2C1 (stereo partly shown) [Example 118] — assign IC50 category
Marked response: 2

Exam item: Field: class (IC50) — entry: Cc1nc2ccccc2c2c1O[C@]1(CC2)C[C@H]2C(=O)N[C@]3(C(=O)NS(=O)(=O)C4(C)CC4)C[C@H]3/C=C\CCCCC[C@H](NC(=O)OC3(C4CC4)CC3)C(=O)N2C1 [Example 131]
Marked response: 1
